System: PHBPU
procedure-text: Pre-emergence action against PHBPU
Assay type: in vivo, Pharbitis purpurea
settings: Dosage 320 g/ha, pre-emergence
test-readout: Pre-emergence action against PHBPU (%)
Give bare numbers, in %.

[[record]]
chemical_structure = "CCCC(=O)c1c(C(F)(F)F)ccc(C(=O)Nc2nnnn2CC)c1Cl"
test_result = 100


State the recorded Pre-emergence action against PHBPU for every item in the following list.
1. CCCn1nnnc1NC(=O)c1ccc(C(F)(F)F)c(C(C)=O)c1Br
2. CCn1nnnc1NC(=O)c1ccc(C)c(C(=O)C2CC2)c1Cl
3. CSc1c(C(=O)Nc2nnnn2C)ccc(C(F)(F)F)c1C(=O)C1CCC1
4. CCCn1nnnc1NC(=O)c1ccc(C(F)(F)F)c(C(=O)COC)c1Cl
5. CCn1nnnc1NC(=O)c1ccc(C(F)(F)F)c(C(=O)C2CC2)c1OC
6. Cn1nnnc1NC(=O)c1ccc(C(F)(F)F)c(C(=O)C2CCC2)c1Cl

[90, 100, 80, 80, 100, 80]

###

Consider the following compounds; for each one, report its Post-emergence action against ABUTH (herbicidal action in percent).
System: ABUTH
procedure-text: Post-emergence action against ABUTH
Assay type: in vivo, Abutilon theophrasti
settings: post-emergence, dosage 80 g/ha, visual assessment about 3 weeks after treatment vs untreated controls
Answers are plain numbers, in %.

[[record]]
compound = "Cn1nnnc1NC(=O)c1ccc(C(F)(F)F)c(C(=O)CCl)c1Cl [1-145]"
units_symbol = "%"
test_result = 100


Would you be so kind as to report Post-emergence action against ABUTH (herbicidal action in percent) for each listed record?
1. CCn1nnnc1NC(=O)c1ccc(C(F)(F)F)c(C(=O)C(F)F)c1Cl [2-163]
2. CCC(=O)c1c(C)ccc(C(=O)Nc2nnnn2CC)c1Cl [2-135]
3. CCCn1nnnc1NC(=O)c1ccc(C(F)(F)F)c(C(=O)C2CCC2)c1Cl [3-153]
4. CCn1nnnc1NC(=O)c1ccc(C(F)(F)F)c(C(=O)C2CC2)c1OC [2-50]
5. CCCn1nnnc1NC(=O)c1ccc(C)c(C(C)=O)c1Cl [3-134]

1: 90; 2: 80; 3: 100; 4: 90; 5: 80

Give me Post-emergence action against ABUTH (herbicidal action in percent) for each of these compounds, listed below.
1. CCCn1nnnc1NC(=O)c1ccc(SC)c(C(=O)C2CC2)c1Cl [3-123]
2. CCCn1nnnc1NC(=O)c1ccc(C(F)(F)F)c(C(C)=O)c1Cl [3-137]

80
90

Please state Post-emergence action against ABUTH (herbicidal action in percent) for every compound in the list that follows.
1. CCn1nnnc1NC(=O)c1ccc(C(F)(F)F)c(C(=O)CCl)c1Cl [2-145]
2. CCn1nnnc1NC(=O)c1ccc(C)c(C(C)=O)c1C [2-1]

1: 100; 2: 80

###

Hi there, I'd appreciate the recorded Post-emergence action against ABUTH (herbicidal action in percent) for every entry that follows.
Test system: ABUTH
procedure-text: Post-emergence action against ABUTH
Assay type: in vivo, Abutilon theophrasti
settings: post-emergence, dosage 80 g/ha, visual assessment about 3 weeks after treatment vs untreated controls
Give bare numbers, in %.

Here's what some known entries look like.
[[record]]
molecule = "CCn1nnnc1NC(=O)c1ccc(C(F)F)c(C(C)=O)c1Cl"
units_symbol = "%"
test_result = 100

[[record]]
molecule = "CCn1nnnc1NC(=O)c1ccc(Cl)c(C(=O)C2CC2)c1Cl"
units_symbol = "%"
test_result = 80

[[record]]
molecule = "CCCn1nnnc1NC(=O)c1ccc(C(F)(F)F)c(C(=O)C(C)C)c1Cl"
units_symbol = "%"
test_result = 100

[[record]]
molecule = "CCCn1nnnc1NC(=O)c1ccc(C(F)(F)F)c(C(=O)C2CCC2)c1SC"
units_symbol = "%"
test_result = 100

[[record]]
molecule = "CCC(=O)c1c(C(F)(F)F)ccc(C(=O)Nc2nnnn2CC)c1C"
units_symbol = "%"
test_result = 100

[[record]]
molecule = "CCCn1nnnc1NC(=O)c1ccc(S(C)(=O)=O)c(C(C)=O)c1C"
units_symbol = "%"
test_result = 100

[[record]]
molecule = "CCCn1nnnc1NC(=O)c1ccc(C(F)(F)F)c(C(C)=O)c1SC"
units_symbol = "%"
test_result = 100

[[record]]
molecule = "CCCn1nnnc1NC(=O)c1ccc(C(F)(F)F)c(C(=O)COC)c1Cl"
units_symbol = "%"
test_result = 90


Could you tell me Post-emergence action against ABUTH (herbicidal action in percent) for each of these molecules? They are listed below.
1. CCn1nnnc1NC(=O)c1ccc(S(C)(=O)=O)c(C(=O)C2CC2)c1Cl
2. CCCC(=O)c1c(C(F)(F)F)ccc(C(=O)Nc2nnnn2CCC)c1C
3. CC1CC1C(=O)c1c(C(F)(F)F)ccc(C(=O)Nc2nnnn2C)c1Cl (centres unmarked)
4. CCn1nnnc1NC(=O)c1ccc(C(F)(F)F)c(C(=O)C2CC2)c1SC
5. CCn1nnnc1NC(=O)c1ccc(C(F)F)c(C(=O)C2CC2)c1Cl

1: 80; 2: 100; 3: 100; 4: 100; 5: 100

Please look at the items below and tell me Post-emergence action against ABUTH (herbicidal action in percent) for each one, in order.
1. CCn1nnnc1NC(=O)c1ccc(C(F)(F)F)c(C(C)=O)c1SC
2. CCCn1nnnc1NC(=O)c1ccc(C(F)(F)F)c(C(C)=O)c1OC

1: 100; 2: 100

For each of the items listed, what is its Post-emergence action against ABUTH (herbicidal action in percent)?
1. CCn1nnnc1NC(=O)c1ccc(S(C)(=O)=O)c(C(C)=O)c1C
2. CCCn1nnnc1NC(=O)c1ccc(C(F)(F)F)c(C(=O)C2CC2)c1C

100
80

Dear colleague, could you send me Post-emergence action against ABUTH (herbicidal action in percent) for each of the items below? Thanks.
1. CCn1nnnc1NC(=O)c1ccc(Cl)c(C(=O)C(C)C)c1Cl
2. CCn1nnnc1NC(=O)c1ccc(C(F)(F)F)c(C(=O)c2cc(F)cc(F)c2)c1Cl
3. CCn1nnnc1NC(=O)c1ccc(C(F)(F)F)c(C(=O)C(C)C)c1Cl

1. 90
2. 80
3. 100

###

System: ABUTH
procedure-text: Pre-emergence action against ABUTH
Assay type: in vivo, Abutilon theophrasti
settings: Abutilon theophrasti, 504 h; pre-emergence, dosage 320 g/ha, scored visually after 3 weeks vs untreated controls; read-out: Pre-emergence action against ABUTH (herbicidal activity)
Task for the reader: assign each of the following molecules its reported pest or weed control at 320 g/ha.
Numbers only, in %.

See these solved cases before continuing.
[[record]]
chemical_structure = "CCn1nnnc1NC(=O)c1ccc(C(F)(F)F)c(C(C)=O)c1Cl"
test_result = 100

[[record]]
chemical_structure = "CCC(=O)c1c(C(F)(F)F)ccc(C(=O)Nc2nnnn2C)c1Cl"
test_result = 100

[[record]]
chemical_structure = "CC(C)C(=O)c1c(C(F)(F)F)ccc(C(=O)Nc2nnnn2C)c1Cl"
test_result = 100

[[record]]
chemical_structure = "CC(=O)c1c(Cl)ccc(C(=O)Nc2nnnn2C)c1Cl"
test_result = 100


Consider the record given below.
The recorded pest or weed control at 320 g/ha for `Cn1nnnc1NC(=O)c1ccc(Cl)c(C(=O)C2CC2)c1Cl` is 90

###

For each of the compounds below, state its Pre-emergence action against VERPE.
Tested on: VERPE
procedure-text: Pre-emergence action against VERPE
Type: in vivo, Veronica persica
settings: Dosage 320 g/ha, pre-emergence
Answers are plain numbers, in %.

Hello, I would appreciate it if you could give Pre-emergence action against VERPE for each entry below.
1. CCn1nnnc1NC(=O)c1ccc(Cl)c(C(=O)C(C)C)c1Cl
2. CCn1nnnc1NC(=O)c1ccc(C(F)(F)F)c(C(=O)C2CC2)c1SC
3. CCn1nnnc1NC(=O)c1ccc(C(F)(F)F)c(C(=O)C2CCCCC2)c1SC
4. CCCn1nnnc1NC(=O)c1ccc(C(F)(F)F)c(C(C)=O)c1OC
5. CCCn1nnnc1NC(=O)c1ccc(C(F)(F)F)c(C(C)=O)c1SC
6. CCCC(=O)c1c(C(F)(F)F)ccc(C(=O)Nc2nnnn2CC)c1Cl
7. CCCn1nnnc1NC(=O)c1ccc(C(F)(F)F)c(C(=O)C2CC2)c1Cl

[90, 100, 90, 90, 90, 100, 100]

Count: 8. Required value per item: Pre-emergence action against VERPE.
1. Cn1nnnc1NC(=O)c1ccc(C(F)(F)F)c(C(=O)C2(C)CC2)c1Cl
2. CCn1nnnc1NC(=O)c1ccc(C(F)(F)F)c(C(C)=O)c1SC
3. CCCn1nnnc1NC(=O)c1ccc(C(F)F)c(C(C)=O)c1SC
4. CCn1nnnc1NC(=O)c1ccc(S(C)(=O)=O)c(C(=O)C2CC2)c1C
5. CCn1nnnc1NC(=O)c1ccc(C(F)(F)F)c(C(C)=O)c1OC
6. CCn1nnnc1NC(=O)c1ccc(C(F)(F)F)c(C(=O)C2CCCCC2)c1Cl
7. CCCn1nnnc1NC(=O)c1ccc(C(F)(F)F)c(C(C)=O)c1Cl
8. CCCn1nnnc1NC(=O)c1ccc(C)c(C(C)=O)c1Cl

1. 100
2. 100
3. 100
4. 100
5. 100
6. 80
7. 90
8. 80

Please supply Pre-emergence action against VERPE for each of the following items, keeping them in order.
1. CCn1nnnc1NC(=O)c1ccc(C)c(C(=O)C2CC2)c1Cl
2. Cn1nnnc1NC(=O)c1ccc(C(F)(F)F)c(C(=O)C2CCC2)c1Cl

1. 90
2. 100

Record Pre-emergence action against VERPE for all entries; do not skip any.
1. CCn1nnnc1NC(=O)c1ccc(S(C)(=O)=O)c(C(C)=O)c1Cl
2. CCCn1nnnc1NC(=O)c1ccc(S(C)(=O)=O)c(C(=O)C2CC2)c1Cl
3. CCC(=O)c1c(C)ccc(C(=O)Nc2nnnn2CC)c1Cl
4. CCn1nnnc1NC(=O)c1ccc(C(F)(F)F)c(C(=O)C2(C)CC2)c1Cl
5. CCCn1nnnc1NC(=O)c1ccc(C(F)(F)F)c(C(C)=O)c1C
6. CCn1nnnc1NC(=O)c1ccc(S(C)(=O)=O)c(C(=O)C2CC2)c1Cl
7. CC1CC1C(=O)c1c(C(F)(F)F)ccc(C(=O)Nc2nnnn2C)c1Cl (stereo not drawn)
8. CCn1nnnc1NC(=O)c1ccc(C(F)(F)F)c(C(C)=O)c1Br

1: 100; 2: 100; 3: 90; 4: 80; 5: 100; 6: 100; 7: 100; 8: 100

# map each compound to its Pre-emergence action against VERPE
1. COCC(=O)c1c(C(F)(F)F)ccc(C(=O)Nc2nnnn2C)c1Cl
2. CCn1nnnc1NC(=O)c1ccc(C(F)(F)F)c(C(=O)C(C)C)c1Cl
3. CCCC(=O)c1c(C(F)(F)F)ccc(C(=O)Nc2nnnn2CCC)c1C

1. 100
2. 100
3. 100

For every item below, please supply its Pre-emergence action against VERPE.
1. CCCn1nnnc1NC(=O)c1ccc(C(F)F)c(C(=O)C2CC2)c1Cl
2. CCn1nnnc1NC(=O)c1ccc(C(F)(F)F)c(C(=O)C2CCC2)c1Cl
3. CCn1nnnc1NC(=O)c1ccc(S(C)(=O)=O)c(C(C)=O)c1C
4. CCn1nnnc1NC(=O)c1ccc(C(F)F)c(C(=O)C2CC2)c1Cl
5. CCCn1nnnc1NC(=O)c1ccc(C(F)(F)F)c(C(=O)C2CC2)c1OC
6. CCn1nnnc1NC(=O)c1ccc(C)c(C(C)=O)c1Cl
7. CCn1nnnc1NC(=O)c1ccc(Cl)c(C(=O)C2CCCC2)c1Cl
8. Cn1nnnc1NC(=O)c1ccc(C(F)(F)F)c(C(=O)c2cc(F)cc(F)c2)c1Cl

1: 100; 2: 100; 3: 100; 4: 100; 5: 100; 6: 100; 7: 90; 8: 100

Give me Pre-emergence action against VERPE for each of these compounds, listed below.
1. CCCn1nnnc1NC(=O)c1ccc(C(F)(F)F)c(C(C)=O)c1Br
2. CCC(=O)c1c(Cl)ccc(C(=O)Nc2nnnn2CC)c1Cl
3. CSc1c(C(=O)Nc2nnnn2C)ccc(C(F)(F)F)c1C(=O)C1CCC1

1: 100; 2: 90; 3: 100
